Values were extracted from patent US9850283B2.

Target: LK35.2-hPD-L1 cells / PE-labeled PD-1-Ig (Homo sapiens, UniProt Q9NZQ7)
Construct: expressed in transfected cells; host or cells: LK35.2 mouse B cell line
Sequence (Q9NZQ7 19-290): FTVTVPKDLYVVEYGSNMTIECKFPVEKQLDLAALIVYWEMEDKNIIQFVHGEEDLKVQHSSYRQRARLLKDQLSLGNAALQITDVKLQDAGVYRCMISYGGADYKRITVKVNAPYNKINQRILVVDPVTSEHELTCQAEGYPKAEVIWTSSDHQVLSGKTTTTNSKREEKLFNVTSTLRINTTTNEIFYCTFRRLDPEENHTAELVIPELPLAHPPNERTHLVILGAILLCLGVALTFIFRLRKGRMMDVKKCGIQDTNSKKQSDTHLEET
Assay Remarks: LK35.2-hPD-L1 cell binding high-content screening assay
Format: cell-based
Study Conditions: cluster symbol; cell line of CBA not given (LK35.2-hPD-L1 or 293T-hPD-L1); read-out: CBA IC50 cluster
pIC50: −log10 of the molar value. Positions of bridges follow the written chain, without caps; N, C: chain ends. Non-standard residues stand in square brackets, D forms with d. Residues, ends and D or L forms follow the SMILES beside them. Phe(4-Cl) = N[C@@H](Cc1ccc(Cl)cc1)C(=O)O; NMeF = CN[C@@H](Cc1ccccc1)C(=O)O; NMeNle = CCCC[C@H](NC)C(=O)O; Sar = CNCC(=O)O
Listed here are molecules together with their documented pIC50.
Readout: pIC50

>>> result("CCCC[C@H]1C(=O)N(C)[C@@H](CCCC)C(=O)N[C@@H](CCCN)C(=O)N[C@H](C(=O)NCC(N)=O)CSCC(=O)N[C@@H](Cc2ccc(O)cc2)C(=O)N(C)[C@@H](C)C(=O)N[C@@H](CC(N)=O)C(=O)N2CCC[C@H]2C(=O)N[C@@H](Cc2cnc[nH]2)C(=O)N[C@@H](CC(C)C)C(=O)N2C[C@H](O)C[C@H]2C(=O)N[C@@H](Cc2c[nH]c3ccccc23)C(=O)N[C@@H](CO)C(=O)N[C@@H](Cc2c[nH]c3ccccc23)C(=O)N1C")
"8.33 to 9.80"
>>> result("CCCC[C@H]1C(=O)N(C)CC(=O)N[C@@H](CC(=O)O)C(=O)N[C@@H](C(C)C)C(=O)N(C)[C@@H](Cc2ccccc2)C(=O)N[C@@H](Cc2ccc(O)cc2)C(=O)N(C)CC(=O)N[C@@H](Cc2c[nH]c3ccccc23)C(=O)N[C@@H](Cc2ccc(O)cc2)C(=O)N[C@@H](Cc2ccc(Cl)cc2)C(=O)N[C@H](C(=O)NCC(N)=O)CSCC(=O)N[C@@H](Cc2ccccc2)C(=O)N(C)[C@@H](Cc2ccccc2)C(=O)N1C [Example 3098] ({CH2CO}-F[NMeF][NMeNle][Sar]DV[NMeF]Y[Sar]WY[Phe(4-Cl)]CG-NH2; thioether N-13)")
"7.14 to 8.32"

* * *

Target: LK35.2-hPD-L1 cells / PE-labeled PD-1-Ig (Homo sapiens)
Construct: expressed in transfected cells; host or cells: LK35.2 mouse B cell line
Assay Remarks: LK35.2-hPD-L1 cell binding high-content screening assay
Assay type: cell-based
Study Conditions: cell binding assay, cell line not given; cluster symbol; read-out: CBA IC50 cluster
Positions of bridges follow the written chain, without caps; N, C: chain ends. Non-standard residues stand in square brackets, D forms with d. Residues, ends and D or L forms follow the SMILES beside them. NMeNle = CCCC[C@H](NC)C(=O)O; NMeA = CN[C@@H](C)C(=O)O; Sar = CNCC(=O)O
Readout: IC50

>>> result("CCCC[C@H]1C(=O)N(C)[C@@H](CCCC)C(=O)N[C@@H](Cc2ccccn2)C(=O)N[C@H](C(=O)NCC(N)=O)CSCC(=O)N[C@@H](Cc2ccc(O)cc2)C(=O)N(C)[C@@H](C)C(=O)N[C@@H](CC(N)=O)C(=O)N2CCC[C@H]2C(=O)N[C@@H](Cc2cnc[nH]2)C(=O)N[C@@H](CC(C)C)C(=O)N2C[C@H](O)C[C@H]2C(=O)N[C@@H](Cc2c[nH]c3ccccc23)C(=O)N[C@@H](CO)C(=O)N[C@@H](Cc2c[nH]c3ccccc23)C(=O)N1C")
"0.00478 to 0.0729 µM"
>>> result("CCCC[C@H]1C(=O)N(C)[C@@H](CCCC)C(=O)N[C@@H](CCCNC(=N)N)C(=O)N[C@H](C(=O)NCC(=O)NCC(N)=O)CSCC(=O)N[C@@H](Cc2ccccc2)C(=O)N(C)[C@@H](C)C(=O)N[C@@H](CC(N)=O)C(=O)N2CCC[C@H]2C(=O)N[C@@H](Cc2cnc[nH]2)C(=O)N[C@@H](CC(C)C)C(=O)N(C)CC(=O)N[C@@H](Cc2c[nH]c3ccccc23)C(=O)N[C@@H](CO)C(=O)N[C@@H](Cc2c[nH]c3ccccc23)C(=O)N1C [Example 6001] ({CH2CO}-F[NMeA]NPHL[Sar]WSW[NMeNle][NMeNle]RCGG-NH2; thioether N-14)")
"0.00478 to 0.0729 µM"
